Where a name gives a salt, the structure may show the parent alone.
Each entry below carries its measured pIC50, system: Human PDE7B (hPDE7B) (Homo sapiens, UniProt Q9NP56).
Sequence (Q9NP56 whole entry): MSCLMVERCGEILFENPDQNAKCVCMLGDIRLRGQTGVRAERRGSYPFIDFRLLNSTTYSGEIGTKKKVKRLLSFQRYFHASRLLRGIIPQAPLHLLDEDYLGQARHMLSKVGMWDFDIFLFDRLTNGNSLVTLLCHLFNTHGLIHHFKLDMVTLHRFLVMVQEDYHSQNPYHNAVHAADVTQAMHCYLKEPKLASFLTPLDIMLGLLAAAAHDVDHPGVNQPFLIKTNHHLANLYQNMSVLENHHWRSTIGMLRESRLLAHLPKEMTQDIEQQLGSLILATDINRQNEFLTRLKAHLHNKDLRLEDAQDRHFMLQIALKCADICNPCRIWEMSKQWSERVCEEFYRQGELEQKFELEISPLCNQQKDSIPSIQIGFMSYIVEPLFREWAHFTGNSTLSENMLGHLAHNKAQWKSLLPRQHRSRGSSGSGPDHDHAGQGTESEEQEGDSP
Scale: negative log10 of molar concentration, which is what pIC50 denotes.

Record excerpt, results attached:
CC1CC(c2nnc3c(N)nccn23)CC(F)(F)C1 (single isomer, unassigned) [Example 215] :: 6.28
C[C@H]1C[C@H](n2nnc3c(N)ncnc32)CC(C)(C)C1 (racemic) :: 7.40
CC1CCC(C)N(c2nnc3c(N)nccn23)C1 (racemic) [Example 58] :: 7.70
C[C@H]1CCC[C@H](c2nnc3c(N)nccn23)C1 (racemic) :: 7.30
CC1(C)CCCN(c2nnc3c(N)ncc(-c4ccccc4)n23)C1 :: 6.80
Nc1ncnc2c1nnn2C1CCCCC1 [Example 85, hydrochloride] :: 7.40
CCC1CCCCN1c1nnc2c(N)nccn12 (single isomer, unassigned) [Example 222] :: 7.10
Nc1nccn2c(N3CCCCCCC3)nnc12 :: 6.41
Nc1ncnc2c1nnn2[C@H]1CCCN(c2ccccc2)C1 :: 6.72
Nc1nccn2c(C3CCC4CC4C3)nnc12 (single isomer, unassigned) [Example 218] :: 7.10

Query :: For Human PDE7B (hPDE7B) (Homo sapiens, UniProt Q9NP56), provide pIC50 of Nc1ncnn2c(C3CCCC(F)(F)C3)nnc12 (racemic) please.
Result :: 7.40

Query :: For Human PDE7B (hPDE7B) (Homo sapiens, UniProt Q9NP56), provide pIC50 of C[C@]1(O)CC[C@@H](n2nnc3c(N)ncnc32)CC1 please.
Result :: 6.05
